# EXPERIMENTAL SYSTEM: Integrin beta-1 (Homo sapiens) + Integrin alpha-4 (Homo sapiens) (UniProt P13612+P05556)
# Sequence (P05556 whole entry, looked up): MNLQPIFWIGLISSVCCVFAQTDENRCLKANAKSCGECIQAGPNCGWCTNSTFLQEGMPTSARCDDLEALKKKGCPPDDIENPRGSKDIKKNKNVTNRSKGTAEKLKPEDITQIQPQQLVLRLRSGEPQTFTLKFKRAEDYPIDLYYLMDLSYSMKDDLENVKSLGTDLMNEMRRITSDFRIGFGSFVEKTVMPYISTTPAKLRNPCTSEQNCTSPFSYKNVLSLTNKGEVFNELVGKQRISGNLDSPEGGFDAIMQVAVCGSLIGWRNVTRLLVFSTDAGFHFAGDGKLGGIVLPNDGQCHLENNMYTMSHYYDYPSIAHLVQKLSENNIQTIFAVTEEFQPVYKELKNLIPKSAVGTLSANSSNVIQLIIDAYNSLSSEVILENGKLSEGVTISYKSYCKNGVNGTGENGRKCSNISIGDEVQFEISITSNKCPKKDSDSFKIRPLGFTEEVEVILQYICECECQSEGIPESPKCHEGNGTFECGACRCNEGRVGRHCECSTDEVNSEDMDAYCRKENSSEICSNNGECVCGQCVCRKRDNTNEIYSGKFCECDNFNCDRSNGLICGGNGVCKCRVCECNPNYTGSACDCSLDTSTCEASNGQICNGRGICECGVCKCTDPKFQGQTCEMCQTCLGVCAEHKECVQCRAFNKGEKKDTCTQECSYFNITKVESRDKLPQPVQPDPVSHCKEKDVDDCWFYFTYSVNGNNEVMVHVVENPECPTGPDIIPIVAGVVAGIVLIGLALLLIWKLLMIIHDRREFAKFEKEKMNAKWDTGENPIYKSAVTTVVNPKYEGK
# Sequence (P13612 whole entry, looked up): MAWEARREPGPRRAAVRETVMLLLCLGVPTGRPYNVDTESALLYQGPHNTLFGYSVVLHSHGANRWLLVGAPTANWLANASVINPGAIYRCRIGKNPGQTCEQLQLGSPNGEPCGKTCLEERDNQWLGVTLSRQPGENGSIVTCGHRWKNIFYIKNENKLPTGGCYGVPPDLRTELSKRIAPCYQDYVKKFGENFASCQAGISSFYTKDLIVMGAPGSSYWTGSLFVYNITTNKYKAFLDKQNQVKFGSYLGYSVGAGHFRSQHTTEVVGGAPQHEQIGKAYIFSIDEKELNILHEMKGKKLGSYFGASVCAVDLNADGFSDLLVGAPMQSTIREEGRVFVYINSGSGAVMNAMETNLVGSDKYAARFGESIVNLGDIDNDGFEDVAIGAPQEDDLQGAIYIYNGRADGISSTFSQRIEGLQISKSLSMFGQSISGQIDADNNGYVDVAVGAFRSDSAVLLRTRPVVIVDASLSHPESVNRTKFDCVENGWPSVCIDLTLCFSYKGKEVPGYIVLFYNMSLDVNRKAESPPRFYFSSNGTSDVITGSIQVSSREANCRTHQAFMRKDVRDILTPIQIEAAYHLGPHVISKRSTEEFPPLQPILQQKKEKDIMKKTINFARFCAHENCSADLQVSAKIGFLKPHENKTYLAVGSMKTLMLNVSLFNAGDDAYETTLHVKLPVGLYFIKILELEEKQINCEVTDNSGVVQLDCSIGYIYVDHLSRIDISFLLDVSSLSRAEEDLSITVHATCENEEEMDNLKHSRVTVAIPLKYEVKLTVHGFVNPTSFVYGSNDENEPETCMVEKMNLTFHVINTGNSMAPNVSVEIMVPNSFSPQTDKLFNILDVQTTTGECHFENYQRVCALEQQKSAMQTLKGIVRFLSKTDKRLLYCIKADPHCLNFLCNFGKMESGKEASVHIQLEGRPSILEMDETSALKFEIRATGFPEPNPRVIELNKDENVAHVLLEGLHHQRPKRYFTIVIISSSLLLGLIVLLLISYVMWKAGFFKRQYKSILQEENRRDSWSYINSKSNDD
# PROTOCOL DESCRIPTION: alpha4beta1 integrin LIBS antibody binding reduction – U937 cells, HUTS-21 mAb, flow cytometry, validation set, VLA-4 allosteric modulator project, pilot screen (AID 2674);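 also: antibody binding induced by the VLA-4 ligand LDV present at three times its Kd; 0% = LDV ligand with antibody and no compound and 100% = antibody without LDV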
# STATED CONDITIONS: HUTS-21 LIBS mAb binding, at 6.7 µM, stronger effect = higher value, binding induced by LDV ligand
So I've got a bunch of compounds here, and I need their inhibition values.
State the answer as a number, implicitly in %.

Ask: Quick one: inhibition of COc1ccc(CN2CCCC(C(=O)c3ccc(Cl)cc3)C2)cc1Cn1cccn1 (stereo not drawn) ?
Result: -9.13

Ask: // inhibition lookup, key: `CCOc1ccc(C(=O)C(C)=O)c(OCC)c1`
Result: -1.09

Ask: For the compound CC(=O)C1=C(O)C(=O)N(Cc2cccnc2)C1c1ccc(C(C)C)cc1 (stereo not drawn) , what inhibition is on record?
Result: -6.23

Ask: Which inhibition value belongs to `O=c1ccc2c(o1)/C(=C/C=C(Cl)Cl)CCC2` ?
Result: -7.25

Ask: Record request: inhibition value, item O=C(NCC1CCCO1)c1ccc(OC2CCN(C(=O)C3CC3)CC2)cc1 (stereo not drawn)
Result: -22.2

Ask: Request the reported inhibition associated with `Cc1ccc2nc(N=C(N)N)nc(C)c2c1`
Result: -13.2

Ask: Data request, read-out inhibition, for CCC(C)NCCOc1ccccc1C (stereo not drawn)
Result: 5.61

Ask: For the compound shown here, `O=C(NC(=S)Nc1ccc2c(c1)OCCO2)c1ccccc1F` , give the reported inhibition.
Result: 1.12

Ask: Any idea what inhibition was measured for `Nc1nc(Cl)nc2c1ncn2[C@@H]1O[C@H](CO)[C@@H](O)[C@H]1O` ?
Result: 2.58

Ask: Given `C/C=C(/C(=C/C)c1ccc(O)cc1)c1ccc(O)cc1` , state its recorded inhibition.
Result: 8.4

Ask: Need inhibition of `CSc1ccc(/C=N/N2CCN(Cc3ccc(C)cc3C)CC2)cc1` , thanks.
Result: -5.11

Ask: I am curious: what inhibition value has been reported for `CN(C)CCOCCOc1ccc(Cl)cc1Br` ?
Result: -2.27

Ask: Form field: reported inhibition of `Cn1cc(CN2CCC(C(=O)N3CCCCC3)CC2)c(-c2ccccc2F)n1`
Result: 5.49

Ask: For `CC1(C)[C@@H](O)CC[C@]2(C)[C@H]3C(=O)C=C4[C@@H]5C[C@@](C)(C(=O)O)CC[C@]5(C)CC[C@@]4(C)[C@]3(C)CC[C@@H]12` , what is its reported inhibition?
Result: 13

Ask: What measured inhibition goes with `CC1CCN(CCOCCOc2ccccc2Br)CC1` ?
Result: 8.88

Ask: For COc1ccccc1OCC(O)COC(N)=O (stereo not drawn) , what is its reported inhibition?
Result: 11.3

Ask: Entry `CC(=O)Oc1ccc(C(c2ccc(OC(C)=O)cc2)c2ccccn2)cc1` has what inhibition?
Result: -42

Ask: # lookup: inhibition of OC(C#CCN1CCCC1)(c1ccccc1)c1cccnc1 (stereo not drawn)
Result: 11.7

Ask: Which inhibition value belongs to `COc1cc2oc(-c3ccc(O)cc3)cc(=O)c2c(OC)c1O` ?
Result: -11.8

Ask: Field request: inhibition | item: `CC1(C)S[C@@H]2[C@H](NC(=O)Cc3ccccc3)C(=O)N2[C@H]1C(=O)O`
Result: 15.1

Ask: Which inhibition value is on record for `O=C(COc1ccc2ccc(=O)oc2c1)c1ccccc1` ?
Result: -8.09

Ask: For the compound C=CCC1(Cl)C(=O)C(Cl)=C(N2CCOCC2)C1(OC)OC (stereo not drawn) , what inhibition is on record?
Result: -4.52

Ask: Suppose we examine the compound `COc1ccc(O)c(C2=Nc3ccccc3N=C(c3ccccc3)C2)c1` ; what inhibition value has been reported?
Result: -10

---

# EXPERIMENTAL SYSTEM: GTPase HRas (Homo sapiens) (UniProt P01112)
# PROTOCOL DESCRIPTION: blockade of GTP loading onto mutant Ras – biochemical, activated mutant, multiplex bead flow cytometry, dose response (AID 1341);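 also: GST-tagged constitutively activated Ras mutant immobilized on beads and multiplexed with other GTPases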
# STATED CONDITIONS: bead-based flow cytometry, Bodipy-FL-GTP binding; series mostly up to 100 µM
Potency and affinity values are given separately. Active and inactive are the calls of the source.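 How the source made its calls: active means dose-response curve with midpoint inside the tested range, moderate steepness, significant amplitude and little compound fluorescence or bead-attachment interference; inactive means the rest.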
READOUT: outcome

# count of solved cases: 10
O=S(=O)(Nc1cc(Sc2ncn[nH]2)c(O)c2ccccc12)c1ccccc1 : inactive
COc1ccc([N+](=O)[O-])cc1NC(=S)NC(NC(=O)Cc1ccc(OC)c(OC)c1)C(Cl)(Cl)Cl (stereo not drawn) : inactive
CCCCOC(=O)c1cccnc1SCCc1ccccc1 : inactive
Cc1ccc(/C=C(\CCC(=O)O)c2nc3ccccc3s2)cc1[N+](=O)[O-] : inactive
CCc1c(C)nc2c(C#N)c[nH]n2c1=O : inactive
O=C(O)c1ccc(COc2cccc(Cl)c2)o1 : inactive
O=C1/C(=C\c2cccnc2)Sc2ccccc21 : inactive
NS(=O)(=O)c1ccc(N2N=C(c3ccccc3)CC2c2cccc(F)c2)cc1 (stereo not drawn) : inactive
CCOc1cc(/C=N/NC(=O)CSc2cccc3cccnc23)ccc1O : inactive
CCOc1ccccc1NC(=O)CSc1ccc2nnc(-c3cccnc3)n2n1 : inactive

Ask: Would you mind telling me what outcome value was observed for `Cn1c(=O)cc(N2CCOCC2)[nH]c1=O` ?
Result: inactive

Ask: Returns the measured outcome for the input molecule. Input: O=C(CCN1CCCC1Cc1ccccc1)c1ccc2c(c1)OCCO2 (stereo not drawn)
Result: inactive

Ask: Fill in the blank: the reported outcome of `NC(=S)N=Nc1c(O)[nH]c2cc(F)c(F)cc12` is ____.
Result: inactive

---

Kindly supply the reported differentiation response values for the records listed here.
# PROTOCOL DESCRIPTION: AML differentiation inducers, ER-HoxA9 marrow cells – cell-based, GFP/MAC1 double positive, flow cytometry, validation set, primary screen (AID 588685);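 also: compound exposure lasts four days before antibody staining and flow analysis; 0% = DMSO wells and 100% = 5 µM fulvestrant positive control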
# STATED CONDITIONS: stronger effect = higher value, normalized: vehicle 0, fulvestrant 100
The source made the active and inactive calls.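 The calls were made as follows: active = differentiation response of at least 50%, scaled between solvent and reference control, from cells with both markers; inactive = the rest.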

Ask: Please give the measured differentiation response for this compound: `C=CCOc1ccc(C(=O)CC)cc1OC`
Result: -6.03% (inactive)

Ask: What measured differentiation response goes with CC12CN3CC(C)(CN(C1)C3c1ccc([N+](=O)[O-])o1)C2 (centres undefined) ?
Result: 7.09% (inactive)

Ask: Sample `CS(=O)(=O)NCc1ccc(C(=O)NCc2ccccc2)cc1` — what was its differentiation response?
Result: -3.02% (inactive)

Ask: Query: differentiation response; subject: `O=C(Nc1ccccc1C(=O)N1CCCCCC1)c1ccccc1Cl`
Result: 8.02% (inactive)

Ask: Any idea what its differentiation response is? The compound is O=C(c1ccc(Cl)cc1)C1CCCN(Cc2ccc(Oc3ncccn3)cc2)C1 (centres undefined)
Result: -6.03% (inactive)

Ask: Need differentiation response of `c1cnc2c(c1)ccc1cccnc12` , thanks.
Result: -0.06% (inactive)

Ask: So what's the measured differentiation response for this one? CC(C)CC(NC(=O)CNC(=O)C1O[C@@H]2OC(C)(C)O[C@@H]2[C@H]2OC(C)(C)O[C@@H]12)C(=O)O (some centres undefined)
Result: 12.9% (inactive)

Ask: What value of measured differentiation response is listed for NCCCC(N)(C(=O)O)C(F)F (centres undefined) ?
Result: -4.57% (inactive)

Ask: differentiation response for `O=C(O)CCCCCN=C1CCc2ccccc2N1` ?
Result: 0% (inactive)

Ask: Which differentiation response is listed for `COC(=O)c1cc(Br)c(=O)n(CCc2ccc(O)cc2)c1` ?
Result: -10.4% (inactive)

Ask: # get_value(readout='differentiation response', item= `CC1(C)CC(=O)C(C2=NC(C)(C)Cc3ccccc32)=C(O)C1` )
Result: -4.64% (inactive)

Ask: I have this compound here, COc1ccc(C2C3=C(OC(C)=O)c4ccccc4C3=Nc3c2c(=O)n(C)c(=O)n3C)cc1 (centres undefined) , and I need its recorded differentiation response.
Result: -11.9% (inactive)

Ask: differentiation response for `CCN(CCCCCN(C)C)Cc1cc2ccccc2o1` ?
Result: 5.6% (inactive)

Ask: May I ask what differentiation response has been recorded for `Cc1cn([C@H]2C=C[C@@H](CO)O2)c(=O)[nH]c1=O` ?
Result: 1.22% (inactive)

Ask: Name the recorded differentiation response for CCOC(=O)C1C2C=CC3(CN(c4ccc(Cl)c(F)c4)C(=O)C13)O2 (centres undefined) .
Result: 12% (inactive)

Ask: Please report the recorded differentiation response for `CC(C)c1ccc(NC(=O)CNS(=O)(=O)c2ccc(F)cc2)cc1` .
Result: -13.6% (inactive)

Ask: Quick one: differentiation response for `CC(=O)[C@H]1CC[C@H]2[C@@H]3C[C@H](C)C4=CC(=O)CC[C@]4(C)[C@H]3[C@@H](O)C[C@]12C` ?
Result: -2.46% (inactive)

Ask: Which differentiation response is listed for `O=C1[C@@H]2CSCN2C(=O)CN1Cc1ccc(F)cc1` ?
Result: -21.6% (inactive)

Ask: Name the recorded differentiation response for `COc1ccccc1/C=C/C(=O)OCCN1CCOCC1` .
Result: -4.91% (inactive)

Ask: Sample CC1CCc2cc(F)cc3c(=O)c(C(=O)O)cn1c23 (centres undefined) — what was its differentiation response?
Result: -6.6% (inactive)

Ask: Recorded differentiation response of `Cc1nc2cc3ccccc3cc2c(=O)[nH]1` , please.
Result: -2.64% (inactive)

Ask: Suppose we examine the compound O=C(O)C1CSC(c2ccco2)N1 (centres undefined) ; what differentiation response value has been reported?
Result: -2.03% (inactive)

Ask: Could you tell me which differentiation response is on file for `CC1CCN(C(=O)Oc2ccccc2)CC1` ?
Result: -6.03% (inactive)

Ask: Query: differentiation response; subject: `c1ccc(Cn2ncc3c(Nc4ccccc4)ncnc32)cc1`
Result: -8.93% (inactive)
